Test system: primary cortico-hippocampal neuron cultures
Assay: lactate dehydrogenase (LDH) activity assay in parallel neuron cultures
Conditions: primary screening; table sorted by Aβ1-42
Where a name gives a salt, the structure may show the parent alone.
readout: LDH (% of ctl)

stdin: So what's the measured LDH (% of ctl) for this one? COC(=O)C1=C(C)NC(C)=C(C(=O)OCCN(C)Cc2ccccc2)C1c1cccc([N+](=O)[O-])c1 (stereo not shown) [Nicardipine Hydrochloride]
stdout: 104.2 % of ctl

stdin: Would you kindly repeat that for CCC(C(N)=O)c1ccccc1 (stereo not shown) [Fenbutyramide] ?
stdout: 135.0 % of ctl

stdin: Can you handle CC(=O)Nc1ccc(OCC(O)CNC(C)C)cc1 (stereo not shown) next?
stdout: 108.9 % of ctl

stdin: How about this molecule: CC[C@@H](C)C(=O)O[C@H]1[C@H](O)[C@H]2[C@@H](CN3C[C@@H](C)CC[C@H]3[C@@]2(C)O)[C@@H]2C[C@]34O[C@]5(O)[C@@H](OC(=O)[C@](C)(O)[C@@H](C)O)CC[C@@]3(C)[C@@H]5[C@@H](OC(C)=O)[C@@H](OC(C)=O)[C@H]4[C@@]21O (stereo in doubt)
stdout: 729.8 % of ctl

stdin: Input CC(=O)CC(c1ccccc1)c1c(O)c2ccccc2oc1=O (stereo not shown)
stdout: 106.6 % of ctl

stdin: Quick one: Nc1nc(N)c2nc(-c3ccccc3)c(N)nc2n1
stdout: 103.3 % of ctl

stdin: How about CC(C)NCC(O)COc1cccc2[nH]ccc12 (stereo not shown) ?
stdout: 171.7 % of ctl

====

Tested on: primary cortico-hippocampal neuron cultures
Assay: MTT in primary screening
Settings: primary screening; table sorted by Aβ1-42
Structures can show the parent of a compound that is named as a salt.
I'd appreciate it if you could supply MTT (% of ctl) values for the items below.

stdin: MTT (% of ctl) lookup needed for CC1Cc2ccccc2N1NC(=O)c1ccc(Cl)c(S(N)(=O)=O)c1 (stereo not shown) [Indapamide] , thanks.
stdout: 104.2 % of ctl

stdin: Now consider NNc1nncc2ccccc12 [Hydralazine Hydrochloride] .
stdout: 95.7 % of ctl

stdin: One more molecule: CCC(C)(C)C(=O)O[C@H]1C[C@@H](C)C=C2C=C[C@H](C)[C@H](CC[C@@H]3C[C@@H](O)CC(=O)O3)[C@H]21 [Simvastatin]
stdout: 93.4 % of ctl

stdin: Moving on to CC(C)N(CCC(C(N)=O)(c1ccccc1)c1ccccn1)C(C)C (stereo not shown) [Disopyramide Phosphate]
stdout: 71.2 % of ctl

stdin: Ok, now NS(=O)(=O)c1cc2c(cc1Cl)NCNS2(=O)=O [Hydrochlorothiazide]
stdout: 102.1 % of ctl

stdin: # repeat for NS(=O)(=O)c1cc(C2(O)NC(=O)c3ccccc32)ccc1Cl (stereo not shown) [Chlorthalidone]
stdout: 12.1 % of ctl

stdin: Please do the same for CC(=O)Nc1nnc(S(N)(=O)=O)s1 [Acetazolamide] as well.
stdout: 78.0 % of ctl

stdin: // repeat for COc1ccc([C@@H]2Sc3ccccc3N(CCN(C)C)C(=O)[C@@H]2OC(C)=O)cc1 [Diltiazem Hydrochloride] and report
stdout: 97.8 % of ctl

stdin: Further, for C1CCC(C(CC2CCCCN2)C2CCCCC2)CC1 (stereo not shown) [Perhexiline Maleate] ?
stdout: 7.2 % of ctl

stdin: Now this one: C[N+](C)(C)CCCCCC[N+](C)(C)C [Hexamethonium Bromide]
stdout: 92.1 % of ctl

stdin: Further, for CCN(CC)CCNC(=O)c1ccc(N)cc1 [Procainamide Hydrochloride] ?
stdout: 96.8 % of ctl

stdin: Now this one: CC(C)c1c(C(=O)Nc2ccccc2)c(-c2ccccc2)c(-c2ccc(F)cc2)n1CC[C@@H](O)C[C@@H](O)CC(=O)[O-].CC(C)c1c(C(=O)Nc2ccccc2)c(-c2ccccc2)c(-c2ccc(F)cc2)n1CC[C@@H](O)C[C@@H](O)CC(=O)[O-].[Ca+2] [Atorvastatin Calcium]
stdout: 98.4 % of ctl

stdin: And CC(C)(C)NC[C@H](O)COc1nsnc1N1CCOCC1 [Timolol Maleate] ?
stdout: 99.2 % of ctl

stdin: For CC(C)c1nc(N(C)S(C)(=O)=O)nc(-c2ccc(F)cc2)c1/C=C/[C@@H](O)C[C@@H](O)CC(=O)O [Rosuvastatin] then?
stdout: 103.8 % of ctl

stdin: Let us now turn to Cc1cccc(Nc2ccncc2S(=O)(=O)NC(=O)NC(C)C)c1 [Torsemide]
stdout: 99.2 % of ctl

stdin: // repeat for Cn1cnc2c1c(=O)[nH]c(=O)n2C [Theobromine] and report
stdout: 97.2 % of ctl

====

Please go through the items and note down their LDH (% of ctl).
System: primary cortico-hippocampal neuron cultures
Test: lactate dehydrogenase (LDH) activity assay in parallel neuron cultures
Conditions: primary screening; table sorted by Aβ1-42
Where a name gives a salt, the structure may show the parent alone.

stdin: What does the record list as LDH (% of ctl) for c1ccc(CC2=NCCN2)cc1 [Tolazoline Hydrochloride] ?
stdout: 112.5 % of ctl

stdin: Then CCOc1nc2cccc(C(=O)OC(C)OC(=O)OC3CCCCC3)c2n1Cc1ccc(-c2ccccc2-c2nn[nH]n2)cc1 (centres unmarked) ?
stdout: 227.6 % of ctl

stdin: Another compound: CC(C)c1c(C(=O)Nc2ccccc2)c(-c2ccccc2)c(-c2ccc(F)cc2)n1CC[C@@H](O)C[C@@H](O)CC(=O)[O-].CC(C)c1c(C(=O)Nc2ccccc2)c(-c2ccccc2)c(-c2ccc(F)cc2)n1CC[C@@H](O)C[C@@H](O)CC(=O)[O-].[Ca+2]
stdout: 99.4 % of ctl

stdin: Same again, this time with CCCCc1nc(Cl)c(CO)n1Cc1ccc(-c2ccccc2-c2nn[nH]n2)cc1
stdout: 110.4 % of ctl

stdin: Consider next the compound CC(C)NCC(O)COc1ccc(CC(N)=O)cc1 (centres unmarked) in the same way.
stdout: 136.8 % of ctl

stdin: Check Cc1cccc(C)c1OCC(C)N (centres unmarked) [Mexiletine Hydrochloride] too.
stdout: 103.4 % of ctl

stdin: Now consider O=C(O)c1cccnc1 and answer again.
stdout: 134.5 % of ctl

stdin: Quick one: NC[C@H]1CC[C@H](C(=O)O)CC1
stdout: 112.8 % of ctl

====

System: primary cortico-hippocampal neuron cultures
Assay: MTT in primary screening
Details: Primary Screening; table sorted by Aβ1-40
Counter-ions that a name gives are not always drawn.
Give measured MTT (% of ctl) for each item. Keep answers brief.

stdin: Value lookup for MTT (% of ctl); key = NS(=O)(=O)c1cc(C(=O)O)c(NCc2ccco2)cc1Cl [Furosemide]
stdout: 101.0 % of ctl

stdin: Next record, please: CCC[C@H](N[C@@H](C)C(=O)N1[C@H](C(=O)O)C[C@@H]2CCCC[C@@H]21)C(=O)OCC
stdout: 95.3 % of ctl

stdin: Moving on to the next molecule: CC(C)(Sc1cc(C(C)(C)C)c(O)c(C(C)(C)C)c1)Sc1cc(C(C)(C)C)c(O)c(C(C)(C)C)c1
stdout: 94.8 % of ctl

stdin: Subsequent entry: Cc1cc(C(C)(C)C)c(O)c(C)c1CC1=NCCN1 [Oxymetazoline Hydrochloride]
stdout: 97.3 % of ctl

stdin: Also, CC(C)COCC(CN(Cc1ccccc1)c1ccccc1)N1CCCC1 (centres unmarked) [Bepridil Hydrochloride] please.
stdout: 77.1 % of ctl

stdin: Quick one: CO[C@H]1[C@H](O)[C@H](O[C@H]2CC[C@@]3(C)[C@H](CC[C@@H]4[C@@H]3CC[C@]3(C)[C@@H](C5=CC(=O)OC5)CC[C@]43O)C2)O[C@@H](C)[C@@H]1O
stdout: 101.2 % of ctl

stdin: Now consider C=C(CC)C(=O)c1ccc(OCC(=O)O)c(Cl)c1Cl and answer again.
stdout: 109.9 % of ctl

stdin: Proceed to NS(=O)(=O)c1cc2c(cc1C(F)(F)F)NCNS2(=O)=O [Hydroflumethiazide]
stdout: 98.9 % of ctl

stdin: Next entry: Cc1ccc(N(CC2=NCCN2)c2cccc(O)c2)cc1 [Phentolamine Hydrochloride]
stdout: 110.3 % of ctl

stdin: // query: c1ccc(CC2=NCCN2)cc1 [Tolazoline Hydrochloride]
stdout: 97.5 % of ctl

stdin: One more molecule: C[N+](C)(C)CCCCCC[N+](C)(C)C [Hexamethonium Bromide]
stdout: 92.1 % of ctl

stdin: Next record, please: CCOC(=O)C1=C[C@]2(CC)CCCN3CCc4c(n1c1ccccc41)[C@@H]32
stdout: 87.7 % of ctl

stdin: Would you mind doing O=[N+]([O-])O[C@H]1CO[C@H]2[C@@H]1OC[C@H]2O[N+](=O)[O-] [Isosorbide Dinitrate] as well?
stdout: 100.8 % of ctl

stdin: Entry to check: NCCc1cc(O)c(O)cc1O [Oxidopamine Hydrochloride]
stdout: 121.5 % of ctl

stdin: Now the same for CCOC(=O)C(C)(C)Oc1ccc(Cl)cc1 [Clofibrate]
stdout: 97.9 % of ctl

stdin: Further, for O=c1oc2c(O)c(O)cc3c(=O)oc4c(O)c(O)cc1c4c23 ?
stdout: 85.2 % of ctl

stdin: What do you have for CC[C@H]1CN2CC[C@H]1C[C@@H]2[C@@H](O)c1ccnc2ccc(OC)cc12 [Hydroquinidine] ?
stdout: 103.6 % of ctl
